- Tested on: UACC-62 melanoma
- Method Notes: NCI tumour cell line growth inhibition, 48 h
Overview of reported TGI across a group of compounds:

{"Compound": "[N-]=[N+]=NC(c1cn(C2CC(O)C(CO)O2)c(=O)[nH]c1=O)C(Br)Br (stereo unspecified)", "TGI": "> 100 µM"}

Kindly note: UACC-62 melanoma, COc1ccc(-c2ccncc2)cc1C(N)=O , TGI value reported: > 25 µM

Response field TGI (UACC-62 melanoma) for item CCCC(CCC(N)=O)(CCC(N)=O)[N+](=O)[O-] : > 100 µM

Known value: UACC-62 melanoma TGI of the compound CC(C)c1c(-c2ccccc2)nc2c(C#N)c[nH]n2c1=O equals 72.2 µM
